Experiment: probe aLefty1 binding on compound microarray – biochemical, small-molecule microarray, 635/667 nm fluorescence, primary screen (AID 1153);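 note: score merges spot fluorescence with signal-to-noise ratio from the scanned slide images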
Condition: higher = more signal
Kind request: treat -0.02 as inclusive, so composite z-score at -0.02 or higher is yes (1), anything lower is no (0).

Study these solved cases before continuing.
O=C(NC1CC1)[C@@H]1c2ccccc2C(=O)N(C2Cc3ccccc3C2)[C@H]1c1ccc(CO)cc1: no (0)
COCCOC(=O)N1C(=O)[C@@]2(c3ccccc31)[C@H](C(=O)N1CCc3cc(OC)c(OC)cc3C1)[C@H]1C(=O)O[C@H](c3ccccc3)[C@H](c3ccccc3)N1[C@@H]2c1ccc(O)cc1: yes (1)
NCCCCCCNC(=O)[C@H]1C[C@H]2C(=O)N[C@@H](Cc3ccccc3)C(=O)N2[C@H]1c1cccc(OCCO)c1: no (0)
COC(=O)[C@@]1(Cc2ccccc2)[C@H]2c3cc(C(=O)N4CCCC4)n(Cc4c(CO)[nH]cc(C)c4=O)c3C[C@H]2CN1C(=O)c1ccccc1: no (0)
COc1ccc(-c2cc3c(c(Cc4ccccc4)n2)[Si](C(C)C)(C(C)C)OC3)cn1: yes (1)
COC(=O)[C@@]1(Cc2ccc(OC)cc2)[C@H]2c3cc(C(=O)N(C)C)n(Cc4ccc(C(F)(F)F)nc4)c3C[C@H]2CN1C(=O)c1ccccc1: yes (1)
C[N+](C)(C)CCCC[C@@H]1NC(=O)[C@@H]2C[C@H](C(=O)NCCCCCN)[C@H](c3ccc(O)cc3)N2C1=O: yes (1)
O=C1NC(=O)C2C1C=CC(C(O)c1ccc(I)cc1)N2Nc1ccccn1 (centres undefined): yes (1)
CC(C)NC(=O)[C@@]1(Cc2ccccc2I)c2ccccc2C(=O)N(Cc2ccccc2Cl)[C@H]1c1ccc(CO)cc1: yes (1)
O=C1O[C@H](c2ccccc2)[C@H](c2ccccc2)N2[C@H]1[C@@H](C(=O)N1CCN(c3ncccn3)CC1)[C@]1(C(=O)Nc3ccc(C#CC4=CCCCC4)cc31)[C@H]2c1ccccc1OCCO: yes (1)

Exam item: Assess whether reported composite z-score for `COc1ccc(CCNC(=O)[C@@]2(c3ccc([N+](=O)[O-])cc3)CC(=O)N(CC34CC5CC(CC(C5)C3)C4)[C@@H]2c2ccc(CO)cc2I)cc1` sits at -0.02 or higher.
Marked response: no (0)

Exam item: Assess whether reported composite z-score for `COc1ccc(C(=O)Nc2ccc(CN3C(=O)[C@]4(O[C@H](CC(=O)N5CCC[C@H]5CO)[C@@H]([Si](C)(C)c5ccc(OC)cc5)[C@@H]4C)c4ccccc43)cc2)cc1` sits at -0.02 or higher.
Marked response: yes (1)

Exam item: Assess whether reported composite z-score for `COc1ccc([C@H]2C[C@H]3C(Br)=C[C@@]2(CO)C(=O)[C@]32CO2)cc1` sits at -0.02 or higher.
Marked response: no (0)

Exam item: Assess whether reported composite z-score for [N-]=[N+]=NCc1ccccc1C[C@@]1(C(=O)NCC(O)CO)N=C(c2ccc(OCCCO)cc2)O[C@@H]1c1ccccc1 (some centres undefined) sits at -0.02 or higher.
Marked response: yes (1)

---

Experiment: binders from COS7 lysate, DM2A8 probe, primary screen, torsin A project, cell lysate, small-molecule microarray, fluorescence 635/667 (AID 1065)
Condition: higher = more signal, COS7 lysate expressing mutant human TOR1A
Observation Type: composite z-score
Give the figure only, with no unit attached.

Here's what some known entries look like.
C=C(CCCC)/C(=C/C[C@H](OC(C)=O)c1ccc(OCCO)cc1)c1cnc2ccccc2c1: 0.641
CCCC1(C(=O)OC)C=C2C(=C(c3ccccc3)C(=O)C2C)CN1 (centres undefined): -0.289
C#CCN1[C@@H](Cc2ccc(O)cc2)C(=O)O[C@H](Cc2ccccc2)[C@@H]1/C=C/C1CC1: 0.336
COc1ccc([Si](C)(C)[C@@H]2[C@@H](CCO)O[C@]3(C(=O)N(Cc4cccc(N5CCOC5=O)c4)c4ccccc43)[C@H]2C)cc1: 0.229
COCCOC(=O)N1C(=O)[C@@]2(c3cc(C#CC4=CCCCC4)ccc31)[C@H](C(N)=O)[C@H]1C(=O)O[C@H](c3ccccc3)[C@H](c3ccccc3)N1[C@@H]2c1ccc(O)cc1: 0.368

Summary for this compound, `C=CCNC(=O)[C@@H]1[C@H]2C(=O)O[C@H](c3ccccc3)[C@H](c3ccccc3)N2[C@H](c2ccc(OCCO)cc2)[C@@]12C(=O)N(C(=O)OCCOC)c1ccc(C#CCNC(N)=O)cc12` : composite z-score is 0.672

Summary for this compound, `CCOC(=O)[C@H]1C/C=C/C[C@H](C(=O)OCC)C(=O)O[C@H]2[C@@H](OC)O[C@H](CO)[C@@H](OC(=O)c3ccc(Br)cc3)[C@@H]2OC1=O` : composite z-score is 0.014
